Origin of the recorded values: ChEMBL document CHEMBL2074440

Molecular target: Hepatic sodium/bile acid cotransporter (Homo sapiens, UniProt Q14973)
Sequence (Q14973 whole entry): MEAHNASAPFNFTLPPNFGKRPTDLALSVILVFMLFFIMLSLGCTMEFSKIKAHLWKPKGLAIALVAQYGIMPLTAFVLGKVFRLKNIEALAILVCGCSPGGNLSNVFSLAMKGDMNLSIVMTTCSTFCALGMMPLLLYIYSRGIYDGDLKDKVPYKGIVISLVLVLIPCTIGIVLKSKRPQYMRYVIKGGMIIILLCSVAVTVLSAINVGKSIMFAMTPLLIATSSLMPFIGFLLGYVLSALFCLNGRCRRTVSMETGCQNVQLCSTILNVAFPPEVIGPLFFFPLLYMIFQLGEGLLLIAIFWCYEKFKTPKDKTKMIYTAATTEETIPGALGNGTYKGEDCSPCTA
Experiment: TP_TRANSPORTER: inhibition of Taurocholate uptake (Taurochorate: 10 uM, Lithocholate: 100 uM) in Xenopus laevis oocytes
Type: functional, cell-based, Oocyte
Design: scale not given: the % may be the effect or the level left
Details: probe taurocholate (10 uM), read-out: Activity
quantity_measured: activity at 100 µM (%)
Entry rule: numbers only, all in %.

For Hepatic sodium/bile acid cotransporter (Homo sapiens, UniProt Q14973), provide activity at 100 µM of `C[C@H](CCC(=O)O)[C@H]1CC[C@H]2[C@@H]3CC[C@@H]4C[C@H](O)CC[C@]4(C)[C@H]3CC[C@]12C` please.
63

* * *

Molecular target: Hepatic sodium/bile acid cotransporter (Homo sapiens, UniProt Q14973)
Experiment: TP_TRANSPORTER: inhibition of Taurocholate uptake (Taurochorate: 10 uM, UDCA: 100 uM) in Xenopus laevis oocytes
Format: functional, cell-based, Oocyte
Design: scale not given: the % may be the effect or the level left
Settings: probe taurocholate (10 uM), read-out: Activity
quantity_measured: activity at 100 µM

Param item = C[C@H](CCC(=O)O)[C@H]1CC[C@H]2[C@@H]3[C@@H](O)C[C@@H]4C[C@H](O)CC[C@]4(C)[C@H]3CC[C@]12C [URSODIOL] ; retrieve measured activity at 100 µM.
45%

* * *

Molecular target: Hepatic sodium/bile acid cotransporter (Homo sapiens, UniProt Q14973)
Test: TP_TRANSPORTER: inhibition of Taurocholate uptake (Taurochorate: 10 uM, BSP: 100 uM) in Xenopus laevis oocytes
Format: functional, cell-based, Oocyte
Design: scale not given: the % may be the effect or the level left
Settings: probe taurocholate (10 uM), read-out: Activity
quantity_measured: activity at 100 µM (%)
Entry rule: numbers only, all in %.

Param item = O=C1OC(c2ccc(O)c(S(=O)(=O)O)c2)(c2ccc(O)c(S(=O)(=O)O)c2)c2c(Br)c(Br)c(Br)c(Br)c21 [SULFOBROMOPHTHALEIN SODIUM] ; retrieve measured activity at 100 µM.
41

* * *

Target: Hepatic sodium/bile acid cotransporter (Homo sapiens, UniProt Q14973)
Assay: TP_TRANSPORTER: inhibition of Taurocholate uptake (Taurochorate: 10 uM, GCDCA: 100 uM) in Xenopus laevis oocytes
Assay type: functional, cell-based, Oocyte
Set-up: scale not given: the % may be the effect or the level left
Details: probe taurocholate (10 uM), read-out: Activity
quantity_measured: activity at 100 µM (%)
Entry rule: numbers only, all in %.

Param item = C[C@H](CCC(=O)NCC(=O)O)[C@H]1CC[C@H]2[C@@H]3[C@H](O)C[C@@H]4C[C@H](O)CC[C@]4(C)[C@H]3CC[C@]12C [GLYCOCHENODEOXYCHOLATE] ; retrieve measured activity at 100 µM.
14

* * *

Target: Hepatic sodium/bile acid cotransporter (Homo sapiens, UniProt Q14973)
Test: TP_TRANSPORTER: inhibition of Taurocholate uptake (Taurochorate: 10 uM, Taurolithocholate: 100 uM) in Xenopus laevis oocytes
Assay type: functional, cell-based, Oocyte
Set-up: scale not given: the % may be the effect or the level left
Settings: probe taurocholate (10 uM), read-out: Activity
quantity_measured: activity at 100 µM (%)
Entry rule: numbers only, all in %.

Param item = `C[C@H](CCC(=O)NCCS(=O)(=O)O)[C@H]1CC[C@H]2[C@@H]3CC[C@@H]4C[C@H](O)CC[C@]4(C)[C@H]3CC[C@]12C` ; retrieve measured activity at 100 µM.
33
